# Target Or Test System: Hepatocyte growth factor receptor (Homo sapiens, UniProt P08581)
# Sequence (P08581 whole entry): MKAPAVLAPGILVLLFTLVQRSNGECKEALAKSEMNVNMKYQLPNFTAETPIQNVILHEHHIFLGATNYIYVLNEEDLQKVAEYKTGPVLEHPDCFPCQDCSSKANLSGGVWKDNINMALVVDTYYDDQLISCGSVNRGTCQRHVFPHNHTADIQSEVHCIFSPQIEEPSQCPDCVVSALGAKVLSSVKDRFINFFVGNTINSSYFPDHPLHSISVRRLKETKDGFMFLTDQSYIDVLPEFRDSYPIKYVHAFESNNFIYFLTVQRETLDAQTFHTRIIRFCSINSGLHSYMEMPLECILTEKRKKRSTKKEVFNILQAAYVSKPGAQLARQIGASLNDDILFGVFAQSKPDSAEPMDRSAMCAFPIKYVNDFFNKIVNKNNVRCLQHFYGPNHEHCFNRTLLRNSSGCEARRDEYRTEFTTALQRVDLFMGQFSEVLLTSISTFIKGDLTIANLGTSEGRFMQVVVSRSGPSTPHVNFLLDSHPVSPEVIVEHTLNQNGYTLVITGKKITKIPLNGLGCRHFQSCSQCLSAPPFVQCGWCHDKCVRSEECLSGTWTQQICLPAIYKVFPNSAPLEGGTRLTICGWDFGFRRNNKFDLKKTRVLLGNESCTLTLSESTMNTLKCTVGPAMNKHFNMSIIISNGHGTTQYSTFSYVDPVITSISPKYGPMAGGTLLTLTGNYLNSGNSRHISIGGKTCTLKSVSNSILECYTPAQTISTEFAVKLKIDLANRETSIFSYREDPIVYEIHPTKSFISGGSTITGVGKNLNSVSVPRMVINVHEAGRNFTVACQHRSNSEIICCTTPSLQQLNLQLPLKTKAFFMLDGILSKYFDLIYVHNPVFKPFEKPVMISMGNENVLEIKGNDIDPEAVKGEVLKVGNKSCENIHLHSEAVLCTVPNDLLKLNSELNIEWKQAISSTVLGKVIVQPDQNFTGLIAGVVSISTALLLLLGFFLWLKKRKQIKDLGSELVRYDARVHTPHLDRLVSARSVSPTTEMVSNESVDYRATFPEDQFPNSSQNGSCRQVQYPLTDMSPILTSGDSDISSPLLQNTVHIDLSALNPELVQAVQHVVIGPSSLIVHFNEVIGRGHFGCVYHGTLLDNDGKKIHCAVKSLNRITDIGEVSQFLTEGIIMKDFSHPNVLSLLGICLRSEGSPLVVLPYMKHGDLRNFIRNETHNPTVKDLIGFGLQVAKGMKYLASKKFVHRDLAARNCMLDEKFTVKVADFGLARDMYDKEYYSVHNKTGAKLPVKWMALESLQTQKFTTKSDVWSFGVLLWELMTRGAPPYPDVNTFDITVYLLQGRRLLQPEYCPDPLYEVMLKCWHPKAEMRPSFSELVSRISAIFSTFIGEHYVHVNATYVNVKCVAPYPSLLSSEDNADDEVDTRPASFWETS
Measurement Type: IC50

In [3]: df
Out[3]:
                           molecular_string   result
0  CC(C)=CCC/C(C)=C/C[C@@H]1C[C@]2(CC=C(C)C)C(=O)[C@@](CC=C(C)C)(C(=O)C(Cc3ccc(O)c(O)c3)=C2O)[C@@]1(C)CCC=C(C)C  > 20 µM

----------
# Test system: HepG2
# Protocol: Cytotoxicity against human HepG2 cells assessed as growth inhibition after 72 hrs by MTT assay
# Applied Conditions: HepG2, 72 h
pIC50: −log10 of the molar value.
pIC50 values, listed per item

Compound	Target Or Test System	Bound Sign	pIC50
CC(=O)Oc1cc(C(=O)C2=C(O)[C@]3(CC=C(C)C)C[C@@H](C/C=C(\C)CCC=C(C)C)[C@](C)(CCC=C(C)C)[C@](CC=C(C)C)(C2=O)C3=O)ccc1O	HepG2	<	4.70
C[C@@H](Oc1cc(-c2cnn(C3CCNCC3)c2)cnc1N)c1c(Cl)ccc(F)c1Cl	HepG2	=	5.43
CC(C)=CCC/C(C)=C/C[C@@H]1C[C@]2(CC=C(C)C)C(=O)[C@@](CC=C(C)C)(C(=O)C(C(=O)c3ccc(OCC(=O)O)c(OCC(=O)O)c3)=C2O)[C@@]1(C)CCC=C(C)C	HepG2	<	4.70
CC(=O)Oc1ccc(C(=O)C2=C(O)[C@]3(CC=C(C)C)C[C@@H](C/C=C(\C)CCC=C(C)C)[C@](C)(CCC=C(C)C)[C@](CC=C(C)C)(C2=O)C3=O)cc1OC(C)=O	HepG2	<	4.70
CC(C)=CCC/C(C)=C/C[C@@H]1C[C@]2(CC=C(C)C)C(=O)[C@@](CC=C(C)C)(C(=O)C(Cc3ccc(O)c(O)c3)=C2O)[C@@]1(C)CCC=C(C)C	HepG2	<	4.70
CC(C)=CCC/C(C)=C/C[C@@H]1C[C@]2(CC=C(C)C)C(=O)[C@@](CC=C(C)C)(C(=O)C(C(=O)c3ccc(O)c(O)c3)=C2O)[C@@]1(C)CCC=C(C)C	HepG2	=	4.89
COC(=O)COc1ccc(C(=O)C2=C(O)[C@]3(CC=C(C)C)C[C@@H](C/C=C(\C)CCC=C(C)C)[C@](C)(CCC=C(C)C)[C@](CC=C(C)C)(C2=O)C3=O)cc1OCC(=O)O	HepG2	<	4.70
COC(=O)COc1cc(C(=O)C2=C(O)[C@]3(CC=C(C)C)C[C@@H](C/C=C(\C)CCC=C(C)C)[C@](C)(CCC=C(C)C)[C@](CC=C(C)C)(C2=O)C3=O)ccc1OCC(=O)O	HepG2	<	4.70
CC(C)=CCC/C(C)=C/C[C@@H]1C[C@@]2(CC=C(C)C)C(=O)C3=C(OC4C=C(O)C(=O)C=C4C3=O)[C@](CC=C(C)C)(C2=O)[C@@]1(C)CCC=C(C)C (some centres not stated)	HepG2	=	5.46
CC(C)=CCC/C(C)=C/C[C@@H]1C[C@]2(CC=C(C)C)C(=O)[C@@](CC=C(C)C)(C(=O)C(OC(=O)c3ccc(O)c(O)c3)=C2O)[C@@]1(C)CCC=C(C)C	HepG2	<	4.70
CC(C)=CCC/C(C)=C/C[C@@H]1C[C@]2(CC=C(C)C)C(=O)[C@@](CC=C(C)C)(C(=O)C3=C2OC2C=C(O)C(=O)C=C2C3=O)[C@@]1(C)CCC=C(C)C (some centres not stated)	HepG2	=	4.84
CC(C)=CCC/C(C)=C/C[C@@H]1C[C@]2(CC=C(C)C)C(=O)[C@@](CC=C(C)C)(C(=O)C(C(=O)c3ccc(O)c(OC(=O)CCCC[C@@H]4SCC5NC(=O)NC54)c3)=C2O)[C@@]1(C)CCC=C(C)C (some centres not stated)	HepG2	=	4.84
